- Test system: DeltatarO mutant
- Protocol Details: S. aureus survival, RN4220 and DeltatarO strains – OD600, teichoic acid synthesis inhibitors, primary screen (AID 463173)
- Reported Conditions: S. aureus RN4220 wild type/DeltatarO growth, OD600, 18 h, stronger effect = lower value, screened at 18.75 µg/mL (by protocol)
Out of some 52,000 compounds screened, about 4,300 (8.3%) were called active. This excerpt belongs to a sample that is enriched for actives.
Categorized via survival: low (below 70%), medium (70% to below 90%), high (90% or more)

Some solved cases for reference:
Cc1cccc(C(=O)Nc2ccc(N3CCC(CCN4CCOCC4)CC3)c(C(=O)O)c2)c1 :: low
CCN1CCN(C(=O)c2ccc(S(=O)(=O)N(CC)CC)cc2)CC1 :: medium
CCC(=O)N1CCc2cc(Br)cc(S(=O)(=O)CCC(=O)NCc3ccc(F)cc3)c21 :: medium
O=C(CNC(=O)c1ccc(F)cc1)OCc1cc(=O)n2nc(C3CC3)sc2n1 :: medium
CCSc1nnc(C2CCCN(CC(=O)NC3CCCCC3C)C2)n1CC (stereo not given) :: medium

Ask: Field: class (survival) — entry: `Cc1ccc(CNC(=O)CSc2ncc(S(=O)(=O)c3ccc(C)c(Cl)c3)c(=O)[nH]2)cc1`
Result: medium

Ask: Which band does `Cc1ccc(NC(=O)Cn2c(=O)nc(-c3ccccc3F)c3cc(Cl)ccc32)c(Br)c1` fall in?
Result: medium

Ask: Which class is correct for the following compound? `Cc1cccc(NC(=O)c2cc(S(=O)(=O)N3CCCCCC3)cn2C)c1C`
Result: low

---

- System: DeltatarO mutant
- Protocol Details: S. aureus survival, RN4220 and DeltatarO strains – OD600, teichoic acid synthesis inhibitors, primary screen (AID 463173)
- Reported Conditions: S. aureus RN4220 wild type/DeltatarO growth, OD600, 18 h, screened at 18.75 µg/mL (by protocol)
Among all 52,000 compounds or so, about 4,300 (8.3%) were called active. No stated cut-off is given here; in the data, active means survival mostly below about 52% (no sharp cut-off); inactive means mostly above about 56%. This excerpt belongs to a sample that is enriched for actives.
Result category, one only: YES (active), NO (inactive)

O=C(CSc1nc(-c2ccc(F)cc2)[nH]c1-c1ccc(F)cc1)Nc1ccc2c(c1)OCO2 :: NO
N#C/C(=C\c1ccc(F)cc1)c1nc(-c2ccc(-c3ccccc3)cc2)cs1 :: NO
O=C(COCc1cc(-c2cccs2)on1)NCc1cccc(Cl)c1 :: NO
Cn1cnc(S(=O)(=O)N2CCCC(C(=O)NCc3ccccc3Cl)C2)c1 (stereo not given) :: NO
O=C(NCCCN1CCCCC1)c1sc2ncccc2c1-n1cccc1 :: NO
Cc1cccc(-c2nc(SCC(=O)Nc3ccc4c(c3)OCO4)c(-c3ccccc3)[nH]2)c1 :: YES
O=C(CSc1nc2ccccc2nc1Cc1ccccc1F)Nc1cccc(C(F)(F)F)c1 :: YES
COc1ccc(OC)c(NC(=O)Cc2c(C)n(C(=O)c3ccc(Cl)cc3)c3ccc(OC)cc23)c1 :: NO
N#C/C(=C/c1ccc(O)cc1)c1nc(-c2ccc(-c3ccccc3)cc2)cs1 :: YES
O=C(CSc1nc2ccccc2nc1Cc1ccc(Cl)cc1)Nc1ccc2c(c1)OCO2 :: NO

Ask: Name the outcome recorded for `COc1ccc(N2CCN(CCCNC(=O)c3sc4ncccc4c3-n3cccc3)CC2)cc1` in the assay.
Result: NO

Ask: // outcome(item) with item = `CC(C)c1ccc(/C=C(\C#N)c2nc(-c3ccc(O)cc3)cs2)cc1`
Result: YES

Ask: Status in this test for Cc1ccc(C(=O)/C=C/c2cn(CC(O)CN3CCc4ccccc43)c3ccccc23)cc1 (stereo not given) ?
Result: NO

Ask: For `CN(C)c1ccc(/C=C(\C#N)c2nc(-c3ccc(Cl)c(Cl)c3)cs2)cc1` , which call appears in the assay record?
Result: NO

Ask: // outcome(item) with item = `CCCC(CCC)C(=O)Nc1cccc(-c2cn3cccnc3n2)c1`
Result: NO

Ask: Could you check what this test reported for `Cc1oc2ncn(CC(C)C)c(=O)c2c1C(=O)Nc1ccc(Cl)cn1` ?
Result: NO

Ask: Given `COCCNC(=O)C1CCN(Cc2cc3ccccc3n2Cc2ccc(C)cc2)CC1` , state the outcome it received in this test.
Result: NO

Ask: Write down the call the test reported for this molecule. Item: `Cc1ccc(-n2ncc(C(=O)N3CCN(c4ccccn4)CC3)c2C2CCN(C(=O)OC(C)(C)C)CC2)cc1C`
Result: NO

Ask: Assay result, entry CC1CCCCN1CCCNC(=O)c1sc2ncccc2c1-n1cccc1 (stereo not given) — outcome?
Result: YES

Ask: Which outcome was entered for the molecule `Cc1ccc2oc(=O)c3cnn(CC(=O)N4CCN(c5cccc(C(F)(F)F)c5)CC4)c3c2c1` in this test?
Result: NO

Ask: Fill in: this test's call for `O=C(NCCCN1CCN(c2ccccc2)CC1)c1sc2ncccc2c1-n1cccc1` is ___
Result: NO

Ask: Hi, sorry to bother you, what did the test record for `CSc1cccc(NC(=O)Cn2c(=O)n(Cc3ccccc3)c(=O)c3sc4ccccc4c32)c1` ?
Result: NO

Ask: What classification did COc1ccc(N2CCN(C(CNC(=O)C(=O)NCc3ccc(C)cc3)c3cccnc3)CC2)cc1 (stereo not given) end up with in this test?
Result: NO

Ask: Which result was noted for this molecule in the test: `N#C/C(=C/c1ccc(Cl)cc1)c1nc(-c2ccc(Br)cc2)cs1`
Result: NO

Ask: Hey, what did the test say about CC(=O)N1CCCC1c1nc2ccccc2n1Cc1cc(C)ccc1C (stereo not given) ?
Result: NO

Ask: Hi, do you know how CC(=O)N1CCCc2cc(S(=O)(=O)N3CCCC(C(=O)Nc4cccc(F)c4)C3)ccc21 (stereo not given) came out in this test?
Result: NO

Ask: Recorded test call requested for `O=C(CSc1nc2ccccc2nc1Cc1ccccc1)Nc1ccc2c(c1)OCO2`
Result: NO

Ask: Kindly provide the recorded test outcome for the following molecule: CCC12CN3CC(C)(CN(C1)C3c1ccc(O)cc1O)C2=O (stereo not given)
Result: NO

Ask: Hi, do you know how `COC(=O)c1cc(S(=O)(=O)NCC2CCN(Cc3cccc(F)c3)CC2)cn1C` came out in this test?
Result: NO

Ask: Write down the call the test reported for this molecule. Item: CCCCN(C)CC(O)Cn1cc(/C=C/C(=O)c2ccc(OC)c(OC)c2)c2ccccc21 (stereo not given)
Result: NO
